Listing of entries alongside the reported pIC50.
target: CDK4/Cyclin D1 (Homo sapiens (Human)); experiment: Biochemical kinase inhibition test, CDK4/Cyclin D1 (32P-ATP, Rb substrate); conditions: recombinant CDK4/Cyclin D1; 10 μM ATP; read-out: CDK4/Cydin D1 IC50
Sequence (P11802 whole entry): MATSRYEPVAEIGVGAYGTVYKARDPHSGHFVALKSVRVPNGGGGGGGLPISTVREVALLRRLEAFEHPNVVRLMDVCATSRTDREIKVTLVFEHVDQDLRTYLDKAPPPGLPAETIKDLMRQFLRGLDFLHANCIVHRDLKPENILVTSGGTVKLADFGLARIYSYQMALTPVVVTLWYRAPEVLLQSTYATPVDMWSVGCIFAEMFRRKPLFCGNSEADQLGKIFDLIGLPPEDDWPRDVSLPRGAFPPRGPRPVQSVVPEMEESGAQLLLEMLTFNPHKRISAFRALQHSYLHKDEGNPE
Sequence (P24385 whole entry partner): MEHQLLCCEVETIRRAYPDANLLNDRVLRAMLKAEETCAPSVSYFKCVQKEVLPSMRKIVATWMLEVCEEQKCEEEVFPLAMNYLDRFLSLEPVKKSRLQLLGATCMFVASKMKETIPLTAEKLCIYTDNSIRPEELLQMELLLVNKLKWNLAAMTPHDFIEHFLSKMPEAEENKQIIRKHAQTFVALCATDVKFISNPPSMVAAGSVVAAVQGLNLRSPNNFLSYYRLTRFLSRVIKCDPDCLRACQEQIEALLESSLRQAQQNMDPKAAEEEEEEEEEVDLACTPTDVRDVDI
pIC50: −log10 of the molar value.
ASSAY READOUT: pIC50

COMPOUND: CC(C)c1cnc2ccc3cnc(Nc4ccc(N5CCOCC5)cn4)nc3n12 [Compound I-17]
VALUE MEASURED: 8.00 to 8.30

COMPOUND: Cl.c1cc(Nc2ncc3ccc4ncc(C5CCCC5)n4c3n2)ncc1N1CCNCC1 [Compound I-31]
VALUE MEASURED: 8.30 to 9.00

COMPOUND: CC(C)c1cnc2ccc3cnc(Nc4ccc(N5CC6(CNC6)C5)cn4)nc3n12 [Compound I-24]
VALUE MEASURED: 7.30 to 7.70

COMPOUND: Cc1cc(Nc2ncc3ccc4ncc(C5CCCC5)n4c3n2)ncc1N1CCOCC1 [Compound I-38]
VALUE MEASURED: 7.70 to 8.00

COMPOUND: CC(C)c1cnc2ccc3cnc(Nc4ccc(N5CCNCC5)cc4F)nc3n12 [Compound I-27]
VALUE MEASURED: 7.00 to 7.30

COMPOUND: CC(C)c1cnc2ccc3cnc(Nc4ccc(N5CCN[C@@H](C)C5)cn4)nc3n12 [Compound I-10]
VALUE MEASURED: 8.00 to 8.30

COMPOUND: CC(C)c1cnc2ccc3cnc(Nc4ccc(N5CCC6(CNC6)C5)cn4)nc3n12 [Compound I-23]
VALUE MEASURED: 7.30 to 7.70

COMPOUND: CC(C)c1cnc2ccc3cnc(Nc4ccc(N5CCC6(CC5)CNC6)cn4)nc3n12 [Compound I-25]
VALUE MEASURED: 7.30 to 7.70

COMPOUND: CC(C)c1cnc2ccc3cnc(Nc4ccc(N5CC6(CCNCC6)C5)cn4)nc3n12 [Compound I-26]
VALUE MEASURED: 7.30 to 7.70

COMPOUND: CC(C)c1cnc2ccc3cnc(Nc4ccc(N5CCNCC5)cn4)nc3n12.Cl [Compound I-1, hydrochloride]
VALUE MEASURED: 8.30 to 9.00
